Measured values drawn from paper PMC12188297 for this set.

# System: flexible GA-rich RNA, 5'-U(GAAG)2GU (RNA, single strand) UGAAGGAAGGU
# method.notes: fluorescence polarization (intrinsic ligand fluorescence)
# condition.context: Na+ 50 mM; 25 mM MES, 0.002% Triton X, pH 6.1, 25 °C, 0.1 μM ligand
quantity: Kd (µM)

Examples from the recorded data:
Cc1cn2cc(-c3cc4ccc(N5CCN(CC6CC6)[C@@H](C)C5)cc4oc3=O)cc(F)c2n1    2.7
COc1c(N2CCN[C@@H](C)C2)ccc2cc(-c3cc(F)c4nc(C)cn4c3)c(=O)n(C)c12    22.1
Cc1cn2cc(-c3nc4sc(N5CCN(C)CC5)cc4s3)cc(F)c2n1    35.7
Cc1cn2cc(-c3nc4ccc(N5CCN[C@@H](C)C5)cc4s3)c(F)cc2n1    38.9
CCN1CCN(c2ccc3cc(-c4cc(F)c5nc(C)cn5c4)c(=O)oc3c2)C[C@@H]1C    3.06
Cc1cn2cc(-c3cc4ccc(N5CCN[C@@H](C)C5)cc4n(-c4ccccc4)c3=O)cc(F)c2n1    78.1

(A) O=c1oc2cc(N3CCNCC3)ccc2cc1-c1cn2ccc(C(F)(F)F)cc2n1
(B) CCN1CCN(c2ccc3cc(-c4cn5cc(C)nc(C)c5n4)c(=O)oc3c2)C[C@@H]1C
(C) Cc1cn2cc(-c3cc4ccc(N5CC6CCC(C5)N6)cc4oc3=O)cc(F)c2n1
q: Ranking field: Kd; order: falling. Answer format: the labels, ordered as requested.
a: C, A, B
(C: 71.0 µM, A: 21.8 µM, B: 14.1 µM)

(I) COc1ccc2nc(-c3cc4ccc(N5CCNCC5)cc4oc3=O)cn2c1
(II) COc1ccn2cc(-c3cc4ccc(N5CCNCC5)cc4oc3=O)nc2c1
q: Consider I and II . Which of these has its Kd at a higher number? Kindly state the label of the option you pick.
a: I

(I) O=c1oc2cc(N3CCNCC3)ccc2cc1-c1cn2ccc(Cl)cc2n1
(II) O=c1oc2cc(N3CCNCC3)ccc2cc1-c1cn2ccccc2n1
q: Would you kindly point out which of I and II has the smaller Kd figure? Kindly state the label of the option you pick.
a: II

* * *

# Test system: flexible GA-rich RNA, 5'-U(GAAG)2GU (RNA, single strand) UGAAGGAAGGU
# method.notes: fluorescence polarization
# condition.context: Na+ 50 mM; 25 mM MES pH 6.1, 0.002% Triton X, 25 °C; ligand fluorescence
quantity: Kd (µM)

CNC1CCN(c2ccc3cc(-c4cc(F)c5nc(C)cn5c4)c(=O)oc3c2)CC1    16.7

(a) Cc1cn2cc(-c3cc4ccc(N5CCN(CC6CCOCC6)[C@@H](C)C5)cc4oc3=O)cc(F)c2n1
(b) Cc1cn2cc(-c3cc4ccc(N5CCN[C@@H](C)C5)cc4n(CC4CC4)c3=O)cc(F)c2n1
q: Would you kindly point out which of a and b has the smaller Kd figure? Kindly state the label of the option you pick.
a: a

(P) CNC1CCN(c2ccc3cc(-c4cc(F)c5nc(C)cn5c4)c(=O)oc3c2)C1 (centres unmarked)
(Q) O=c1oc2cc(N3CCNCC3)ccc2cc1-c1ccc2ccccc2c1
q: Would you kindly point out which of P and Q has the smaller Kd figure? Kindly state the label of the option you pick.
a: P
(P: 19.3 µM, Q: 34.1 µM)

(1) Cc1cn2cc(-c3cc4ccc(N5CC6CNCC6C5)cc4oc3=O)cc(F)c2n1 (centres unmarked)
(2) Cc1cn2cc(-c3cc4ccc(N5CCN[C@@H](C)C5)cc4[nH]c3=O)cc(F)c2n1
(3) C[C@H]1CN(c2ccc3cc(-c4cc(F)c5c(cnn5C)c4)c(=O)oc3c2)CCN1
q: Exam item: list the entries in increasing order of Kd. Answer format: the labels, ordered as requested.
a: 3, 1, 2

(A) O=c1oc2cc(N3CCNCC3)ccc2cc1-c1ccc2ncccc2c1
(B) Cc1cn2cc(-c3cc4ccc(N5CCN[C@@H](C)C5)c(C)c4oc3=O)cc(F)c2n1
(C) CCn1c(=O)c(-c2cc(F)c3nc(C)cn3c2)cc2ccc(N3CCN[C@@H](C)C3)cc21
q: Ranking field: Kd; order: falling. Answer format: the labels, ordered as requested.
a: C, A, B

(A) Cc1cn2cc(-c3cc4c(C)cc(N5CCN[C@@H](C)C5)cc4oc3=O)cc(F)c2n1
(B) Cc1cn2cc(-c3cc4ccc(N5CC6CCCNC6C5)cc4oc3=O)cc(F)c2n1 (centres unmarked)
(C) Cc1nccn2cc(-c3cc4ccc(N5CCN[C@@H](C)C5)cc4oc3=O)nc12
q: Ranking field: Kd; order: falling. Answer format: the labels, ordered as requested.
a: C, A, B
(C: 39.9 µM, A: 19.3 µM, B: 13.5 µM)

(1) Cc1cn2cc(-c3cc4ccc(NC5CNC5)cc4oc3=O)cc(F)c2n1
(2) Cc1cn2cc(-c3cc4ccc(N5CCN(C)CC5)cc4oc3=O)cc(F)c2n1
q: Would you kindly point out which of 1 and 2 has the smaller Kd figure? Kindly state the label of the option you pick.
a: 2
